# assay system: ZAP-S (short isoform of zinc-finger antiviral protein) (human, UniProt Q7Z2W4-2 1-699)
# Sequence (Q7Z2W4 other isoform, or with tags, fused parts or gaps): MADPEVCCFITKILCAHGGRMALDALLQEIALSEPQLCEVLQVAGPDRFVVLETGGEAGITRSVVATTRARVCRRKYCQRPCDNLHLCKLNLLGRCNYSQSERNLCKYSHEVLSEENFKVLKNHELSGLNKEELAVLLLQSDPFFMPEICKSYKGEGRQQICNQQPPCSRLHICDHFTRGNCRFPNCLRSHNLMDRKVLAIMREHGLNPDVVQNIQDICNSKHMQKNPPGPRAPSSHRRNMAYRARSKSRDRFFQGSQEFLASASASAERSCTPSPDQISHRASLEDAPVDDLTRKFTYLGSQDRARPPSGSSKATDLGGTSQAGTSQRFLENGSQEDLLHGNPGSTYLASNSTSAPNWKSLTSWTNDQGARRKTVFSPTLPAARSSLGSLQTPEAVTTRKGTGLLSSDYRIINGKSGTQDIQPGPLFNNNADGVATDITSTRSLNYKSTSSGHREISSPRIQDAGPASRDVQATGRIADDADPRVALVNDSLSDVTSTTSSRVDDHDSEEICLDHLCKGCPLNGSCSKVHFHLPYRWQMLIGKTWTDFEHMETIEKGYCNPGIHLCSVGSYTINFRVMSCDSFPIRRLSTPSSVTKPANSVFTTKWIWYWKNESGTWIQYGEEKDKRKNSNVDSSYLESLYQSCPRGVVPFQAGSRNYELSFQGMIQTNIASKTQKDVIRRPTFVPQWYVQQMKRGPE
# assay: MST; 5 mM Mg2+
# experimental context: protein: recombinant; tags: N-terminal 6xHis-SUMO; label: 3' pCp-Cy5; pseudoknot (predicted)
endpoint label: pKd
pKd here: minus log base 10 of the concentration, concentration in moles per litre.

-- ask Tell me its pKd given Compensatory mutant (structured_RNA) RNA: UCGUUUUUAAACGGGUUUGGGGUGUAAGUGCAGCCCGUCUUACACCCUGGGGCACAGGCACUAGUACUGAUGUCCUAUACAGGGCU as the entry.
-- reply 6.89
